Where these numbers come from: patent US5104869A

Biological target: human kidney renin (Homo sapiens, UniProt P00797)
Construct: Human renin was prepared from human kidney
Sequence (P00797 67-406): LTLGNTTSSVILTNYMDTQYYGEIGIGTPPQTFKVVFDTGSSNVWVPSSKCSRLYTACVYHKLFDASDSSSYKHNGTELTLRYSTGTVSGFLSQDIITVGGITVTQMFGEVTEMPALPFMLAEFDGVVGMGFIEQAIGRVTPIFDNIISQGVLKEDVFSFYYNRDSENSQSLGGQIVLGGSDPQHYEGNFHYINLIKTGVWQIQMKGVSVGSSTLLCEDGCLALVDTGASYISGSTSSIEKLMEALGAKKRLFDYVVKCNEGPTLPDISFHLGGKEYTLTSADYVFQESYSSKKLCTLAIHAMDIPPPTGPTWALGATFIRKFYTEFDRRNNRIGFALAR
Test: Radioimmunoassay Screen for Renin Inhibitors (in vitro angiotensin I generation, quantitated by radioimmunoassay)
Conditions: purified human plasma angiotensinogen, pH 6.0, one hour at 37° C., read-out: Renin Inhibiton IC50
pIC50: −log10 of the molar value.
# pIC50 listing for each entry below

- sampleSmiles: "CC(C)C[C@H](NC(=O)[C@H](Cc1ccccc1)OC(=O)N1CCC2(CC1)OCCO2)C(=O)N[C@@H](CC1CCCCC1)[C@@H](O)c1ccco1"
  studyTarget: "human kidney renin (Homo sapiens, UniProt P00797)"
  pIC50: 6.68
- sampleSmiles: "CC(C)C[C@H](NC(=O)[C@H](Cc1ccccc1)OC(=O)N1CCOCC1)C(=O)N[C@@H](CC1CCCCC1)[C@@H](O)c1nccs1"
  studyTarget: "human kidney renin (Homo sapiens, UniProt P00797)"
  pIC50: 7.96
- sampleSmiles: "O=C(N[C@@H](Cc1cnc[nH]1)C(=O)N[C@@H](CC1CCCCC1)[C@@H](O)c1nccs1)[C@@H](CC(=O)N1CCOCC1)Cc1cccc2ccccc12"
  studyTarget: "human kidney renin (Homo sapiens, UniProt P00797)"
  pIC50: 7.46
- sampleSmiles: "CC(C)C[C@H](NC(=O)[C@@H](CC(=O)OC(C)(C)C)Cc1ccccc1)C(=O)N[C@@H](CC1CCCCC1)[C@@H](O)c1nccs1"
  studyTarget: "human kidney renin (Homo sapiens, UniProt P00797)"
  pIC50: 6.80
- sampleSmiles: "CC(C)C[C@H](NC(=O)[C@H](CC1CCCCC1)OC(=O)N1CCOCC1)C(=O)N[C@@H](CC1CCCCC1)[C@@H](O)c1ccco1"
  studyTarget: "human kidney renin (Homo sapiens, UniProt P00797)"
  pIC50: 6.74
- sampleSmiles: "CC(C)C[C@H](NC(=O)[C@H](Cc1ccccc1)OC(=O)N1CCOCC1)C(=O)N[C@@H](CC1CCCCC1)[C@@H](O)c1ccccn1"
  studyTarget: "human kidney renin (Homo sapiens, UniProt P00797)"
  pIC50: 6.11
- sampleSmiles: "CC(C)C[C@H](NC(=O)[C@H](Cc1ccccc1)OC(=O)N1CCSCC1)C(=O)N[C@@H](CC1CCCCC1)[C@@H](O)c1cccs1"
  studyTarget: "human kidney renin (Homo sapiens, UniProt P00797)"
  pIC50: 6.30
